Values were extracted from ChEMBL document CHEMBL1133053.

Target: UniProtKB P00784
Sequence (P00784 whole entry): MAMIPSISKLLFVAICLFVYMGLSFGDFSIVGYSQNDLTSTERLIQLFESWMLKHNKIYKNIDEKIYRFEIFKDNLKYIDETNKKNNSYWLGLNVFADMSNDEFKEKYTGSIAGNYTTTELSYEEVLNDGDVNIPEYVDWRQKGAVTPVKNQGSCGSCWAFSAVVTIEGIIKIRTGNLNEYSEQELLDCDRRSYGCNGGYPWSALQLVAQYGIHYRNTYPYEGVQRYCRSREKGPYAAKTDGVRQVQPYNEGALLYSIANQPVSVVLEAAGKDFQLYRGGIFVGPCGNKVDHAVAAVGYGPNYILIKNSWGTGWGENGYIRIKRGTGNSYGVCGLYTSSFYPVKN
pIC50: −log10 of the molar value.
PARAMETER MEASURED: pIC50

| MOLECULE | PARAMETER MEASURED | NUMERIC VALUE |
| --- | --- | --- |
| CCOC(=O)[C@H]1CS1 | pIC50 | 6.24 |
| CCOC(=O)C1OC1C(=O)O (centres undefined) | pIC50 | 7.98 |
| COC(=O)[C@H]1CS1 | pIC50 | 6.70 |
| CCOC(=O)C1OC1C(=O)OCC (centres undefined) | pIC50 | 6.68 |
